Measured pIC50, listed per entry.
biological target: Human Met (Homo sapiens, UniProt P08581); construct: Human MET (residues 956-1390); assay: Human Met kinase assay (33P radiometric / HTRF KinEase); conditions: protocols of Examples D-1 and/or D-2; read-out: c-Met IC50
Sequence (P08581 974-1390 limits assumed): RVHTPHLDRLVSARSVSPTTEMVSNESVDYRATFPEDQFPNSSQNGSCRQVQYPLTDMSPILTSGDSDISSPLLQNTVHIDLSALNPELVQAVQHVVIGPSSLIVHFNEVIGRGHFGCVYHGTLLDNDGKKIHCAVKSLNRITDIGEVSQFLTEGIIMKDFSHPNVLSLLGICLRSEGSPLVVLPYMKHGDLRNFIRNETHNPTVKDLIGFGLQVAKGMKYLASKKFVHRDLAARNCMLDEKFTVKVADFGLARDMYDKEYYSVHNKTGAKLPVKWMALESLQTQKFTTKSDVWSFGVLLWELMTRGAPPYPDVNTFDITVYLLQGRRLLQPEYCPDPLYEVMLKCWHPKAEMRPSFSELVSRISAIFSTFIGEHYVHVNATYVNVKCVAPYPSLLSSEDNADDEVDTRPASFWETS
pIC50: −log10 of the molar value.

Illustrative cases are given below, each with its answer.
1) COCCOc1cc2nccc(Oc3ccc(NC(=O)c4cnc(C)c(C5=CCCC5)c4O)cc3F)c2nc1OC [Compound 33]
≥ 7.00
2) CCc1c(Br)c(=O)c(C(=O)Nc2ccc(Oc3ccnc4cc(OCCOC)c(OC)nc34)cc2)cn1C [Compound 64]
< 6.52
3) COCCOc1cc2nccc(Oc3ccc(NC(=O)c4c(C)nc(C)c(C5=CCCC5)c4O)cc3F)c2nc1OC [Compound 41]
≥ 7.00
4) COc1cc2nccc(Oc3ccc(NC(=O)c4cn(CCF)c(C)c(C5=CCCC5)c4=O)cc3F)c2nc1OC [Compound 11]
≥ 7.00
5) COc1cc2nccc(Oc3ccc(NC(=O)c4c(C)n(C)c(C)c(N5CCCCC5)c4=O)cc3F)c2nc1OC [Compound 90]
< 6.52
6) COc1cc2nccc(Oc3ccc(NC(=O)c4c(C)nc(C)c(OC)c4O)cc3)c2nc1OC [Compound 61]
< 6.52

Query: Reported pIC50 for COc1cc2nccc(Oc3ccc(NC(=O)c4c5n(c(C)c(C6=CCCC6)c4=O)CCOC5)cc3F)c2nc1OC [Compound 69] : what is it?
Reply: ≥ 7.00

Query: Reported pIC50 for C=C(C)c1c(C)n(C)c(C)c(C(=O)Nc2ccc(Oc3ccnc4cc(OC)c(OC)nc34)cc2)c1=O [Compound 55] : what is it?
Reply: < 6.52

Query: Reported pIC50 for COc1nc2c(Oc3ccc(NC(=O)c4c(C)n(C)c(C)c(C5=CCCC5)c4=O)cc3F)ccnc2cc1OCCC1CCC1 [Compound 74] : what is it?
Reply: ≥ 7.00

Query: Reported pIC50 for C=C(C)c1c(C)nc(C)c(C(=O)Nc2ccc(Oc3ccnc4cc(OC)c(OC)nc34)cc2)c1O [Compound 4] : what is it?
Reply: ≥ 7.00

Query: Reported pIC50 for COc1cc2nccc(Oc3ccc(NC(=O)c4c(C)n(C)c(C)c(OC)c4=O)cc3)c2nc1OC [Compound 76] : what is it?
Reply: < 6.52

Query: Reported pIC50 for COc1cc2nccc(Oc3ccc(NC(=O)c4c(C)n(C)c(C)c(C#N)c4=O)cc3)c2nc1OC [Compound 82] : what is it?
Reply: < 6.52

Origin of the recorded values: patent US20240158393A1
